- Test system: NCI-H226 lung
- procedure details: NCI-60 one-dose screen, 48 h (100 = growth as untreated, 0 = no growth, -100 = all killed)
- run parameters: 10 µM unless noted
Compounds without any hit were thinned out: in the full panel of roughly 83,000, 20% have a hit.
I would appreciate it if you labelled entries met when growth is 90% or higher, otherwise not met.

Look over these answered cases.
| compound | discrete label |
| --- | --- |
| COc1ccc2nc(-c3ccc(OC)c(OC)c3)cc(-c3nnc(SCC(=O)Nc4ccc(/C(C)=N\O)cc4)n3-c3ccccc3)c2c1 | not met |
| COc1ccc(/C=C/C(=O)Nc2ncnc3nc[nH]c23)cc1 | met |
| COC1=CC=CC2(OC)C3(O)CCCc4cccc(c43)N3C(=O)COC132 (centres undefined) | met |

input: Exam item: decide whether the reported growth for COc1ccc(-c2nnc(N3CCN(C(=O)CN4CCN(c5ccccc5)CC4)CC3)nc2-c2ccc(OC)cc2)cc1 is at least 90%.
output: not met

input: Exam item: decide whether the reported growth for Nc1c(C(=O)Nc2cccc3ccccc23)sc2nc3c(cc12)COCC3 is at least 90%.
output: met

input: Exam item: decide whether the reported growth for COc1cccc(NC(=O)Nc2ccc(Nc3ncnc4[nH]c(C)c(C)c34)cc2)c1 is at least 90%.
output: met

input: Exam item: decide whether the reported growth for COc1cc(NC(=O)COc2cc(C)nc3ccc(OC)cc23)cc(OC)c1 is at least 90%.
output: not met

input: Exam item: decide whether the reported growth for O=C(/C(=C\c1c(-c2ccccc2)[nH]c2ccccc12)S(=O)(=O)c1ccccc1)c1ccccc1 is at least 90%.
output: not met

----------
- System: HOP-92 NSCLC
- procedure details: NCI-60 one-dose screen, 48 h (100 = growth as untreated, 0 = no growth, -100 = all killed)
- run parameters: 10 µM unless noted
About 83,000 compounds went through this panel and 20% of them were active in at least one assay; those are over-represented in the sample as a whole.
parameter: growth (%)
Give your result in % as a bare value.

| compound | growth (%) |
| --- | --- |
| Nc1cc(N)c(S(=O)(=O)O)cc1N=Nc1cc([N+](=O)[O-])ccc1O | 89.4 |
| CCN1CCC[C@H]1c1cc(O)c2c(c1OC)C[C@H]1C[C@H]3[C@H](N)C(=O)C(C(N)=O)=C(O)[C@@]3(O)C(=O)C1=C2O | -3.43 |
| O=C(O)c1cn(C2CC2)c2cc(N3CCN(C(=O)CSc4nnc(-c5ccc(Cl)cc5)n4-c4ccccc4)CC3)c(F)cc2c1=O | 79.6 |
| COc1ccc2oc(=O)cc(-c3nc4ccc(N)cc4[nH]3)c2c1 | 80.2 |
| COc1ccc(/C(=N\O)c2cc(C)c(OC)c(C)c2)cc1O | 54.1 |

input: Consider the compound Nc1ccc(C2=NN(C(=O)c3cc(-c4ccc(Cl)cc4)nc4ccccc34)C(c3ccc(Cl)cc3)C2)cc1 (stereo not drawn) . State its measured growth.
output: 60.3

input: Consider the compound C=C1C(=O)O[C@H]2[C@H]1CC/C(COC(=O)Nc1nc3ccccc3[nH]1)=C\CC[C@@]1(C)O[C@@H]21 . State its measured growth.
output: 50.4

input: Consider the compound Cc1cc(C)c2nc(Nc3nc(C)c(C)c(=O)[nH]3)nc(C)c2c1 . State its measured growth.
output: 7.24

input: Consider the compound O=C1c2ccccc2C(=O)c2c1oc1c2c(=O)[nH]c2ccc(Cl)cc21 . State its measured growth.
output: -37.2

input: Consider the compound CCO/C=N/S(=O)(=O)c1cc2c(cc1Cl)NC=NS2(=O)=O . State its measured growth.
output: 92.2

input: Consider the compound N#Cc1c(-c2ccc(F)cc2)nc(N=Nc2c(O)[nH]c3ccc(Cl)cc23)nc1N1CCOCC1 . State its measured growth.
output: -9.97

input: Consider the compound CCOC(=O)NCCc1nc2c([nH]1)c(=O)n(C)c(=O)n2C . State its measured growth.
output: 93.5

input: Consider the compound C=C1C(=O)O[C@H]2[C@H]1CC/C(COC(=O)CCC(=O)OC/C1=C/CC[C@@]3(C)O[C@H]3[C@H]3OC(=O)C(=C)[C@@H]3CC1)=C\CC[C@@]1(C)O[C@@H]21 . State its measured growth.
output: -1.85

input: Consider the compound COc1ccc2nc(-c3ccc(Cl)cc3)cc(C(=O)N3N=C(c4ccc(N)cc4)CC3c3ccccc3)c2c1 (stereo not drawn) . State its measured growth.
output: 58.9

input: Consider the compound O=C1CCc2ccccc2N1 . State its measured growth.
output: 101

input: Consider the compound CCOC(=O)/C(=C/c1c(-c2ccccc2)[nH]c2ccccc12)C(=O)c1ccc(Cl)cc1 . State its measured growth.
output: 13.5

input: Consider the compound COc1ccc(C2=NN(c3ccc(S(N)(=O)=O)cc3)C(c3ccc(Cl)cc3)C2)c(O)c1 (stereo not drawn) . State its measured growth.
output: 58.6

input: Consider the compound COc1cc(C(=O)N2CCN(c3ccccc3OC)CC2)c(NC(=O)c2cnccn2)cc1OCc1ccccc1 . State its measured growth.
output: 10.7

----------
- System: UO-31 renal
- procedure details: NCI-60 one-dose screen, 48 h (100 = growth as untreated, 0 = no growth, -100 = all killed)
- run parameters: 10 µM unless noted
About 83,000 compounds went through this panel and 20% of them were active in at least one assay; those are over-represented in the sample as a whole.
I would appreciate it if you labelled entries 1 (yes) when growth is 60% or higher, otherwise 0 (no).

| molecule | discrete label |
| --- | --- |
| NC(=N\N=C\c1ccccc1O)/C(N)=N/N=C/c1ccccc1O | 1 (yes) |
| CN(C)C1=NCCN1 | 1 (yes) |
| N#Cc1c(NC(=O)c2cccs2)[n+]([O-])c2cc(C(F)(F)F)ccc2[n+]1[O-] | 1 (yes) |

Could you now look at the following molecule, please?
input: Exam item: decide whether the reported growth for CCc1c(C(=O)N[C@@H](C(=O)OCc2ccccc2)C(C)O)[nH]c2ccc(Cl)cc12 (some centres undefined) is at least 60%.
output: 0 (no)

----------
- Test system: TK-10 renal
- procedure details: NCI-60 one-dose screen, 48 h (100 = growth as untreated, 0 = no growth, -100 = all killed)
- run parameters: 10 µM unless noted
- Method: Growth inhibition of the TK-10 human tumor cell line is measured as a screen for anti-cancer activity. Cells are grown in 96 well plates and exposed to the test compound for 48 hours. Compounds are tested at a single concentration, which is 10^-5 M for most compounds. The reported endpoint is percent growth (GI% or GIPRCNT), where numbers from 0 - 100% represent growth inhibition, and numbers from -100% - 0 represent cell death. For example, a value of 40 represents 60% growth inhibition. […]
This is part of a sample that, as a whole, favours compounds with a hit. Of some 83,000 tested, about 20% had one in any assay.
Values of growth strictly less than 90% map to T, and values of at least 90% map to F.

Look over these answered cases.
| compound | tested system | discrete label |
| --- | --- | --- |
| C=C1C(=O)O[C@H]2[C@H]1CC/C(COC(=O)/C=C/c1cccnc1)=C\CC[C@@]1(C)O[C@@H]21 | TK-10 renal | T |
| O=C1CC(c2ccc(O)c(O)c2)Oc2cc(O)c([C@@H]3O[C@H](CO)[C@@H](O)[C@H](O)[C@H]3O)c(O)c21 (stereo partly drawn) | TK-10 renal | F |
| COc1ccc2[nH]c(=O)c(/C=C/C(=O)c3ccccc3OC)cc2c1 | TK-10 renal | T |
| CCCCc1nc(Cl)c(C2CC(c3ccc(Cl)cc3)=NN2c2cc(Cl)cc(Cl)c2)[nH]1 (stereo not drawn) | TK-10 renal | F |
| [2H]c1nc(Nc2ncc3cc(C(=O)N(C)C)n(C4CCCC4)c3n2)c([2H])c([2H])c1N1C([2H])([2H])C([2H])([2H])NC([2H])([2H])C1([2H])[2H] | TK-10 renal | T |

input: For N#Cc1c(-c2ccc(F)cc2)nc(N/N=C/c2cccc(O)c2)nc1N1CCOCC1 , is the recorded growth below the cut-off of 90%?
output: T

input: For CCOc1ccc(C2N(c3cc(OC)c(OC)c(OC)c3)C(=O)C2(F)F)cc1 (stereo not drawn) , is the recorded growth below the cut-off of 90%?
output: F

input: For CCOC(=O)c1c(C)nc2c(c1N)/C(=C/c1ccccn1)C(=O)N2Cc1ccccc1 , is the recorded growth below the cut-off of 90%?
output: T

input: For CC(=O)c1ccc(NC(=O)CSc2nnc(-c3cc(-c4ccc(C)cc4)nc4ccccc34)o2)cc1 , is the recorded growth below the cut-off of 90%?
output: T

input: For CCCNc1nc(C)[nH]c(=O)c1S , is the recorded growth below the cut-off of 90%?
output: F

input: For CC(C)C[C@H](C(=O)O)N(C)C(=O)[C@@H]1CCCN1C(=O)[C@H](C)OC(=O)[C@H](CCC(N)=O)NC(=O)[C@@H]1CCC(=O)N1 , is the recorded growth below the cut-off of 90%?
output: F

input: For CCCn1cc(/C=N\N=C2\C(=O)Nc3ccc(C)cc32)c2ccccc21 , is the recorded growth below the cut-off of 90%?
output: F

input: For Cc1nnc(/N=C2\NC(=O)/C(=C/c3ccc(N(C)C)cc3)S2)s1 , is the recorded growth below the cut-off of 90%?
output: T

input: For COc1ccc(C2N(c3cc(OC)c(OC)c(OC)c3)C(=O)C2(F)F)cc1F (stereo not drawn) , is the recorded growth below the cut-off of 90%?
output: F

input: For O=[N+]([O-])c1ccc(N=Nc2c(O)c(N=Nc3cc([N+](=O)[O-])cc([N+](=O)[O-])c3O)cc(N=Nc3cc(S(=O)(=O)O)cc4cc(S(=O)(=O)O)cc(O)c34)c2O)cc1 , is the recorded growth below the cut-off of 90%?
output: F
